# Assay comment: in vitro
# Test settings: human
Observable: CC50 (µM)
# output: bare number, implied unit µM

Below, each entry is followed by its recorded CC50 result.
CN(C)CCCN1c2ccccc2CCc2ccc(Cl)cc21 :: 18.6
CCN(CC)CCNc1ccc(CO)c2sc3ccccc3c(=O)c12 :: 11.7

# CC50 of CCN(CC)CCCC(C)Nc1ccnc2cc(Cl)ccc12 (centres unmarked) = 12

# CC50 of OC(c1cc(C(F)(F)F)nc2c(C(F)(F)F)cccc12)C1CCCCN1 (centres unmarked) = 5.4

# CC50 of CCN(CCO)CCCC(C)Nc1ccnc2cc(Cl)ccc12 (centres unmarked) [hydroxychloroquine] = 16.7

###

# reported CC50; entries follow
# System: Vero E6 cells
# Test settings: read-out: CPE CC50; uninfected Vero E6, 72 h

Below, each entry is followed by its recorded CC50 result.
CN(C)CCCN1c2ccccc2CCc2ccc(Cl)cc21 :: > 30 µM
CCN(CC)CCCC(C)Nc1ccnc2cc(Cl)ccc12 (stereo not drawn) :: > 30 µM

Pending compound:
# CC50 of CCN(CCO)CCCC(C)Nc1ccnc2cc(Cl)ccc12 (stereo not drawn) [hydroxychloroquine] = > 30 µM
